- test.target: USP9X (Homo sapiens, UniProt Q93008)
- Sequence (Q93008 whole entry): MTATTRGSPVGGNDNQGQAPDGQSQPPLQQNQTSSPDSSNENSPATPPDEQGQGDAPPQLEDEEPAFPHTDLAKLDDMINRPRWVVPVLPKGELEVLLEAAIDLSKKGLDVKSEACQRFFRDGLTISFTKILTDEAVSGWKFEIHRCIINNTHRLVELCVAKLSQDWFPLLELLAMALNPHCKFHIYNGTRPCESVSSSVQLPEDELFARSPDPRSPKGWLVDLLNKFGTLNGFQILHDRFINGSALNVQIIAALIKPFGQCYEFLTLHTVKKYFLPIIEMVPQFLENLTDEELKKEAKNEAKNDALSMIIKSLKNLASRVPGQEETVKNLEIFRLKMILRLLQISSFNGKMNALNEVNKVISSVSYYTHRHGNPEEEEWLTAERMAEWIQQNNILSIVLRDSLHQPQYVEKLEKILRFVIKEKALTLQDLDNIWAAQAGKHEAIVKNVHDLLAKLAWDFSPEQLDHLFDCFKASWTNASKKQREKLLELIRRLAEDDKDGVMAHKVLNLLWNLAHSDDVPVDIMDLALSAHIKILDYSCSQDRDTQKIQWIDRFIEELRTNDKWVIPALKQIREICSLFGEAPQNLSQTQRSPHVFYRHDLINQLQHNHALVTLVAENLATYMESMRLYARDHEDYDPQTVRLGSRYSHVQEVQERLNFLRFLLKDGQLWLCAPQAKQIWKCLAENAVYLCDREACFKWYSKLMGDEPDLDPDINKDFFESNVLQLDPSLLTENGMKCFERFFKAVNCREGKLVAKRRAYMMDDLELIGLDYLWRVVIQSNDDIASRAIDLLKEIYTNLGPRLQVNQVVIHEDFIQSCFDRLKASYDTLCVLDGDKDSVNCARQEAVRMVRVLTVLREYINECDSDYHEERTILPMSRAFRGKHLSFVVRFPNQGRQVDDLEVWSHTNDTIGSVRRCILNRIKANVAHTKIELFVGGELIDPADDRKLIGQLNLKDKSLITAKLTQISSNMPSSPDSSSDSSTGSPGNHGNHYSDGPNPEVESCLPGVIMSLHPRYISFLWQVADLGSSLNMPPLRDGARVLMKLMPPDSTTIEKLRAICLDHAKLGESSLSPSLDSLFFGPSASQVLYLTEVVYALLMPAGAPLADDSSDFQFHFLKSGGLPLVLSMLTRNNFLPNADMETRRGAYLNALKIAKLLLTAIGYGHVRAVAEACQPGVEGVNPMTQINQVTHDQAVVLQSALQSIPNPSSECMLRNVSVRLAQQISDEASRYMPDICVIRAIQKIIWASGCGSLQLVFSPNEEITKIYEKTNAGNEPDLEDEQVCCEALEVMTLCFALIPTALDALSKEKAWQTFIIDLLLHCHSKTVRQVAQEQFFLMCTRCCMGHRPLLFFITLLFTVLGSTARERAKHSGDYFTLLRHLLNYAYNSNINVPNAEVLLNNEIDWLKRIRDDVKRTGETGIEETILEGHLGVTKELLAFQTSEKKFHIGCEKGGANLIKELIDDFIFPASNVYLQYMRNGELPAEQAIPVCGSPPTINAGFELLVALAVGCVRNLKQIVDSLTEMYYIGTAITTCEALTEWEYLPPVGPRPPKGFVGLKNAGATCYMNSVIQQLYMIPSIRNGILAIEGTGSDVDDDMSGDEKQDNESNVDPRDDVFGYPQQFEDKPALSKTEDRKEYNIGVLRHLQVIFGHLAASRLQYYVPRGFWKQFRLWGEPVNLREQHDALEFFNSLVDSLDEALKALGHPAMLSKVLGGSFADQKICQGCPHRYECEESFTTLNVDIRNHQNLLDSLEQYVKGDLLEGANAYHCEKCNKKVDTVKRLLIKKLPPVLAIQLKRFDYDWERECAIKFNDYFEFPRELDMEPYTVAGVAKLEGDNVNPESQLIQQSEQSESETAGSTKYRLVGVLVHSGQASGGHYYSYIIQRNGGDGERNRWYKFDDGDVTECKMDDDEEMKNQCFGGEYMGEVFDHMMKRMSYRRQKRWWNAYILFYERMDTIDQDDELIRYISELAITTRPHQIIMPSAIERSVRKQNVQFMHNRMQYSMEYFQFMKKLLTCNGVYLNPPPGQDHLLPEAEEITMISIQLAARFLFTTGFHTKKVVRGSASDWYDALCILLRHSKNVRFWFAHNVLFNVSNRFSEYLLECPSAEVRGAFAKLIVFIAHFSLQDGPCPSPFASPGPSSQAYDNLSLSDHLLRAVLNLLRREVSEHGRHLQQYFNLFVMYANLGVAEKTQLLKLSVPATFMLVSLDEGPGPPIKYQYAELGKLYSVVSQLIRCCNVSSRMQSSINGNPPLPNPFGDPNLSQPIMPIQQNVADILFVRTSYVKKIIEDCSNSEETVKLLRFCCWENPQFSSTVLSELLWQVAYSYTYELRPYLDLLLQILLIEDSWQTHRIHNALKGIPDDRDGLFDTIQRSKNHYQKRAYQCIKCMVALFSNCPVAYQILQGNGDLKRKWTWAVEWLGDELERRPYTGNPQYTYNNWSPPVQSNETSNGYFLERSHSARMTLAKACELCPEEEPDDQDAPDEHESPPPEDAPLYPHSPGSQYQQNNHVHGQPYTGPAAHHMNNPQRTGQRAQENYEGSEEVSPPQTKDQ
- assay.explanation: Biochemical Assay for USP9X Inhibition (Ub-Rh110 fluorescence)
- test.parameters: USP9X 0.025 nM, Ub-Rh110 25 nM, 30 min preincubation
endpoint.label: IC50

Consider the molecule O=S(=O)(c1ccc(-n2ccnc2)cc1)N1Cc2cnc(C(O)c3ccccc3)cc2C1 (stereo not shown) . State its measured IC50.
> 25 µM

Supply reported IC50 belonging to this molecule: CN1CCC(Oc2cccc(C(O)c3cc4c(cn3)CN(S(=O)(=O)c3ccc(-c5ncco5)cc3)C4)c2)CC1 (single isomer, unassigned)
0.001 to 0.1 µM

Tell me its IC50 given O=S(=O)(C1CCN(c2nccs2)CC1)N1Cc2cnc(C(O)c3ccccc3)cc2C1 (stereo not shown) as the entry.
> 25 µM

For the molecule O=S(=O)(C1CCN(c2ncco2)CC1)N1Cc2cnc(C(O)c3ccccc3)cc2C1 (stereo not shown) , give its measured IC50 value.
> 25 µM

###

- test.target: USP9X (Homo sapiens)
- assay.explanation: Biochemical Assay for USP9X Inhibition (Ub-Rh110 fluorescence)
- test.parameters: USP9X […], Ub-Rh110 25 nM, 30 min preincubation
- Protocol: Concentration and incubation times were optimized for the maximal signal-to-background while maintaining initial velocity conditions at a fixed substrate concentration (<<Km). […] To assay plates (pre-stamped with compound) was added 3 μL 2× Enzyme. The enzyme was preincubated for 30 minutes and then treated with 3 μL of 2× Substrate. […] The slope (best fit linear regression) of the five reads was used to normalize for inhibition. […]
endpoint.label: IC50

Quote IC50 reported for CN1CCC(Oc2cccc(C(O)c3cc4c(cn3)CN(S(=O)(=O)c3ccc(-c5ncco5)cc3)C4)c2)CC1 (single isomer, unassigned) [Example 79] please.
1 to 100 nM

Cited source: patent US20220041597A1
